- target.under.test: T1, HsLARP6(70-300) R244E/R245E/R249E (Homo sapiens, UniProt Q9BRS8 70-300, R244E;R245E;R249E)
- T1 sequence: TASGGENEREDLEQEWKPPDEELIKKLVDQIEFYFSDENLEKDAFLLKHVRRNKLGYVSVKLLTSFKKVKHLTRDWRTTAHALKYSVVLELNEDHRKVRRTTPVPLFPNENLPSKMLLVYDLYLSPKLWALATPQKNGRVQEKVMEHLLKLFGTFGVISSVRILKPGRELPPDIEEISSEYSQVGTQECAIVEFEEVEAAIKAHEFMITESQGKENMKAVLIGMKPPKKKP
- assay.remarks: ITC; ITC: 20 mM Tris pH 7.25, 100 mM KCl, 5 mM MgCl2, 1 mM DTT, 298 K; protein titrated into RNA
- condition.notes: protein: recombinant; tags: N-terminal His6 (TEV-cleavable); stem-loop with internal bulge
test.readout: Kd (nM)
Write it as a number; the unit nM goes unstated.

Request: Item under review: CCACAAAGAGUCUACAUGUCUAGGGUCUAGACAUGUUCAGCUUUGUGG (structured_RNA) [48 nt RNA (collagen alpha1(I) 5' UTR SL)] . Reported Kd?
Result: 27
